System: PIK3CA (human) (UniProt P42336) | Read-out: IC50 | Origin: multiple publications
Measured endpoint: IC50

Compound | Endpoint result
C[C@H](Nc1nc(N)ncc1C(F)(F)F)c1cc2cccc(Cl)c2c(C(=O)N2CCOCC2)n1 | > 10 µM
CC(=O)Nc1cccc(-c2ccc3c(N4CCOCC4)nc(-c4cnc(N)nc4)nc3c2)c1 | 0.201 to 10 µM
C[C@H](Nc1ncnc2cccnc12)c1cc2cccc(Cl)c2c(C(=O)N2CCS(=O)(=O)CC2)n1 | > 10 µM
Nc1nc2cc(-c3ccc4ncc(N5CCC(O)CC5)nc4n3)ccc2o1 | < 0.1 µM
C[C@H]1CN(c2cnc3ccc(-c4ccc5oc(N)nc5c4)cc3n2)CCN1C | < 1 µM
COc1ncc(-c2ccc3nccc(-c4ccc(CN5CCCC5)cc4)c3c2)cc1NS(=O)(=O)c1ccc(F)cc1F | 0.0014 µM
Cc1cccnc1-n1c(Cn2nc(-c3ccc4oc(N)nc4c3)c3c(N)ncnc32)cc2cccc(C)c2c1=O | < 10 µM
CCn1c(Cn2nc(-c3ccc4nc(NC(C)=O)sc4c3)c3c(N)ncnc32)cc2cccc(C)c2c1=O | < 0.1 µM
C[C@@H]1CN(c2nc3c(N4CCOCC4)nc(-c4cnc(N)nc4)nc3n2CC(F)(F)F)C[C@H](C)N1C(=O)CO | < 0.01 µM
CNS(=O)(=O)c1cccc(-c2ccc3ncc(C(=O)N4CCOCC4)n3c2)c1 | > 10 µM
CNc1nc2cc(-c3ccc4ncc(C(=O)N5CCOCC5)n4c3)ccc2o1 | < 10 µM
COc1ncc(-c2cnc3[nH]cc(C(=O)c4c(F)ccc(NS(=O)(=O)c5cc(F)ccc5F)c4F)c3c2)cn1 | ≤ 10 µM
CN(C)C(=O)c1ccccc1-c1ccnc2c1c(/C=C1\Oc3cccc(O)c3C1=O)cn2C | 5.9 µM

---

System: PIK3CA (human) (UniProt P42336) | Read-out: IC50 | Origin: multiple publications
Measured endpoint: IC50 (nM)

Compound | Measured endpoint | Result modifier | Endpoint result
Nc1ccc(-c2cccc(Oc3cc(=O)[nH]c4ccccc34)c2)cc1 | IC50 | = | 9520
COc1ncc(-c2cc(OCC3CC3)c3nc(N)nc(C)c3c2)cc1NS(=O)(=O)c1ccc(F)cc1F | IC50 | = | 1.7
CC(=O)Nc1nc2cc(-c3nn(Cc4cc5cccc(C)c5c(=O)n4-c4ccccc4)c4ncnc(N)c34)ccc2o1 | IC50 | < | 10000
CC(C)(C)OC(=O)N1CCN(c2ccc(-c3cccc(Oc4cc(=O)[nH]c5ccccc45)c3)cc2)CC1 | IC50 | = | 9890

---

pIC50: −log10 of the molar value.
System: UniProtKB P42336 | Read-out: pIC50 | Origin: multiple publications
Measured endpoint: pIC50

Molecule | Endpoint result
Cn1ncc2cc(-c3ccc4c(c3)CN(c3ccnc5ccccc35)CCO4)ccc21 | 5.70 to 6.00
C[C@@H]1COCCN1C(=O)c1cnc2ccc(-c3ccc4oc(N)nc4c3)cn12 | > 7.00
CC(=O)Nc1cc(-c2cnc3c(N4CCOCC4)nc(-c4cnc(N)nc4)nc3c2)ccc1F | > 7.30
Cc1csc2nc(C(C)Nc3ncnc4[nH]cnc34)c(-c3cc(F)cc(F)c3)c(=O)n12 (single isomer, unassigned) | < 6.30
CC#CCN(CC(C)(C)O)[C@H]1CC[C@H](CNc2nc(N3CCOCC3)cc(-n3c(C(F)F)nc4ccccc43)n2)CC1 | 5.66

---

pIC50: −log10 of the molar value.
System: UniProtKB P42336 | Read-out: pIC50 | Origin: multiple publications

Compound | pIC50
FC(F)c1nc2ccccc2n1-c1cc(N2CCOCC2)nc(NCC2CCN(C3CCOCC3)CC2)n1 | < 5.52
COc1cc(-c2cccc3cc([C@H](C)NC(=O)c4ncc(C)nc4N)n(-c4ccccc4)c(=O)c23)ccn1 | < 5.00
CC(=O)Nc1nc2cc(-c3ccc4oc(N)nc4c3)ccc2s1 | < 5.00
C[C@H](Nc1ncnc2[nH]cnc12)c1cc2cccc(Cl)c2c(C(=O)N2CCN[C@@H](C)C2)n1 | > 5.00
CNc1nc(C)c2cc(-c3cnc(OC)c(NS(=O)(=O)c4ccc(F)cc4F)c3)cc(OC3CCCCC3)c2n1 | 7.82
CNCCN(C)C(=O)c1ccc(NC(=O)Nc2ccc(-c3nc(N4CCOCC4)c4ccn(CC(F)(F)F)c4n3)cc2)cc1 | > 8.68
CC(C)Cn1cc(-c2cccc3cc([C@H](C)Nc4ncnc5scnc45)n(-c4ccccc4)c(=O)c23)cn1 | 5.00 to 6.00
COc1ncc(-c2cc(OC)c3nc(N)nc(C)c3c2)cc1NS(=O)(=O)c1ccc(F)cc1F | 8.92
CN1CCC(N(C)C(=O)c2cnc3ccc(-c4ccc5oc(N)nc5c4)cn23)CC1 | > 6.00
Oc1cccc(-c2nc(Nc3ccc4[nH]ccc4c3)c3cnn(C4CCNCC4)c3n2)c1 | < 5.00

---

System: PIK3CA (human) (UniProt P42336) | Read-out: IC50 | Origin: multiple publications

Compound | IC50
Nc1nc2cc(-c3ccc4ncc(NCCN5CCCC5)nc4c3)ccc2o1 | < 1000 nM
COC(=O)Nc1nc2ncc(-c3ccc4c(c3)CN(C(=O)N3CCC(CCF)CC3)CCO4)cc2[nH]1 | ≤ 75 nM
Cc1cccc2cc(C(C)Nc3ncnc4[nH]cnc34)n(C(C)C)c(=O)c12 (stereo not shown) | < 10000 nM
[2H]c1c(-c2ccc3ncc(C(=O)N4CCOCC4)n3c2)c([2H])c2nc(N)oc2c1[2H] | < 100 nM

---

System: PIK3CA (human) | Read-out: IC50 | Origin: multiple publications
Measured endpoint: IC50 (µM)

Compound | Subject of test | Measured endpoint | Result modifier | Endpoint result
NCC(=O)N1CCN(c2nc3c(N4CCOCC4)nc(-c4cnc(N)nc4)nc3n2CC2CC2)CC1 | PIK3CA (human) | IC50 | < | 0.01
CC(C)(C)OC(=O)N1CCC[C@H](CNc2nc(N3CCOCC3)cc(-n3c(C(F)F)nc4ccccc43)n2)C1 | PIK3CA (human) | IC50 | = | 7.7
CC(C)(C)OC(=O)N1CC=C(c2cccc(Oc3cc(=O)[nH]c4ccccc34)c2)CC1 | PIK3CA (human) | IC50 | = | 9.5
CC(C)(C)OC(=O)N1CCC(CNc2nc(N3CCOC[C@@H]3CF)cc(-n3c(C(F)F)nc4ccccc43)n2)CC1 | PIK3CA (human) | IC50 | > | 10
CN1CCN(C(=O)c2cnc3cnc(-c4ccc5oc(N)nc5c4)cn23)CC1 | PIK3CA (human) | IC50 | < | 10
COc1ncc(-c2cc(O[C@H]3CCOC3)c3ncnc(C)c3c2)cc1NS(C)(=O)=O | PIK3CA (human) | IC50 | = | 0.0021
O=C(CS(=O)(=O)c1ccccc1)N[C@H]1CC[C@H](Nc2nc(N3CCOCC3)cc(-n3c(C(F)F)nc4ccccc43)n2)CC1 | PIK3CA (human) | IC50 | = | 2.7
Cn1cc(/C=C2\Oc3cccc(O)c3C2=O)c2c(-c3ccc(CN4CCOCC4)cc3)ccnc21 | PIK3CA (human) | IC50 | = | 0.154
Cc1nc2cnc3ccc(-c4cnc(N)c(C(F)(F)F)c4)nc3c2n1C1CCOCC1 | PIK3CA (human) | IC50 | < | 0.1
Cc1ccccc1-n1c(Cn2nc(-c3ccc(F)c(O)c3)c3c(N)ncnc32)cc2ccccc2c1=O | PIK3CA (human) | IC50 | > | 10
CNc1ncc(-c2nc(N3CCOCC3)c3nc(N4CCN(CC(=O)N(C)C)[C@H](C)C4)n(CC(F)(F)F)c3n2)cn1 | PIK3CA (human) | IC50 | < | 0.01
Cc1ccn2c(-c3cnc(Cl)c(NS(=O)(=O)c4ccc(F)cc4)c3)cnc2c1 | PIK3CA (human) | IC50 | = | 0.013

---

System: PIK3CA (human) (UniProt P42336) | Read-out: IC50 | Origin: multiple publications

Compound | IC50
O=C(NCCN1CCOCC1)Nc1ccc(-c2cccc(Oc3cc(=O)[nH]c4ccccc34)c2)cc1 | > 10000 nM
CN1CCOc2cc(-c3ccnc4c3c(/C=C3\Oc5cccc(O)c5C3=O)cn4C)ccc21 | 802 nM
Nc1nccnc1C(=O)N1CCC[C@H]1c1cc2cccc(Cl)c2c(=O)n1-c1ccccc1 | > 10000 nM
CC(C)n1cc(-c2cccc3cc([C@H](C)Nc4ncnc5scnc45)n(-c4ccccc4)c(=O)c23)cn1 | 1000 to 10000 nM
COc1cc(-c2ccc3ncc4nnc(-c5ccc(C(C)(C)C#N)cc5)n4c3c2)cnc1OC | < 100 nM
Nc1ncc(-c2nc(N3CCOCC3)c3ncc(-c4cccc(NC(=O)c5cncc(F)c5)c4)cc3n2)cn1 | < 50 nM
CNc1ncc(-c2nc(N3CCOCC3)c3nc(N4CCOCC4)n(CC4CC4)c3n2)cn1 | < 10 nM
CC(C)(C#N)c1ccc(-c2n[nH]c3cnc4ccc(-c5cccc(Nc6ccccn6)c5)cc4c23)cc1 | > 20 nM
